- tested_on: PYL7 receptor-HAB1 protein phosphatase complex (Arabidopsis thaliana)
- Construct: made in house; host or cells: E. coli BL21 (DE3)
- Sequence (Q1ECF1 whole entry, one chain of several): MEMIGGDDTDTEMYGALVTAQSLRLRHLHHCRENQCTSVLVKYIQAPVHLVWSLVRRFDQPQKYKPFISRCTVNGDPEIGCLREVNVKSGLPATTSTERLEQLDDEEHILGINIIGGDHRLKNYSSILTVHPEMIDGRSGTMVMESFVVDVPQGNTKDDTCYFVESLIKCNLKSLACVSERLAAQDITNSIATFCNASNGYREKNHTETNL
- measurement_notes: AlphaScreen assay: promotion of PYL7 receptor binding to PP2C protein phosphatase HAB1
- condition: FIG. 2d; 6×His-SUMO-tagged PYL7 (whole coding sequence), Biotin-tagged HAB1 (aa 172-511), 100 nM each; pH 7.4; 1.5 h room temperature; read-out: EC50
pEC50: −log10 of the molar value.
measurement_name: pEC50

- molecule: "CCCN1C(=O)OC(C)c2cc(NS(=O)(=O)Cc3c(F)c(F)c(C)c(F)c3F)ccc21 (centres unmarked)"
  pEC50: 6.92
- molecule: "CCCN1C(=O)OC(C)(C)c2cc(NS(=O)(=O)Cc3c(F)c(F)c(C)c(F)c3F)ccc21"
  pEC50: 6.92

====

- tested_on: PYR1 receptor-HAB1 protein phosphatase complex (Arabidopsis thaliana, UniProt O49686)
- Construct: made in house; host or cells: E. coli BL21 (DE3)
- Sequence (O49686 whole entry): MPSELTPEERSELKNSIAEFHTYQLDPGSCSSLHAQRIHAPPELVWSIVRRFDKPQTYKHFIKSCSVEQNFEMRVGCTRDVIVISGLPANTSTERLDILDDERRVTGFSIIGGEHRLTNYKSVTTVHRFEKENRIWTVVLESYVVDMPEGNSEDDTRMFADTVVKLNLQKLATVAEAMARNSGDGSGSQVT
- Sequence (Q9CAJ0 172-511 partner limits assumed): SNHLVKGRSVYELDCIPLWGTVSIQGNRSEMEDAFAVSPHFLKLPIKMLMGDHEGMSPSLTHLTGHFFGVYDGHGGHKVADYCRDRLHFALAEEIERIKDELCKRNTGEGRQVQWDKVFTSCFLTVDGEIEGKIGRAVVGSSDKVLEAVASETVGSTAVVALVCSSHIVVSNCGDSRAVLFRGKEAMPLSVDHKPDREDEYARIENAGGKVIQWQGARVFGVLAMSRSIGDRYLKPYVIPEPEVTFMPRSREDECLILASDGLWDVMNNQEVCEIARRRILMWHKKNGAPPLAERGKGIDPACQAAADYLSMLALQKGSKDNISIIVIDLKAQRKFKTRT
- measurement_notes: AlphaScreen assay: promotion of PYR1 receptor binding to PP2C protein phosphatase HAB1
- condition: FIG. 2a; 6×His-SUMO-tagged PYR1 (whole coding sequence), Biotin-tagged HAB1 (aa 172-511), 100 nM each; pH 7.4; 1.5 h room temperature; read-out: EC50
- Text: The construction method of recombinant plasmids for the Arabidopsis thaliana genes PYL1 (amino acid sequence 36-211), PYL2 (amino acid sequence 14-188) with dual tags of 6×His and SUMO sequence and the Arabidopsis thaliana gene HAB1 (amino acid sequence 172-511) with the Biotin tag sequence is described in detail in “A gate-latch-lock mechanism for hormone signaling by abscisic acid receptors” (Nature, Vol 462, 2009). […]
measurement_name: EC50 (nM)

A: CCCN1C(=O)OC(C)c2cc(NS(=O)(=O)Cc3c(F)c(F)c(C)c(F)c3F)ccc21 (centres unmarked)
B: CCCN1C(=O)OC(C)(C)c2cc(NS(=O)(=O)Cc3c(F)c(F)c(C)c(F)c3F)ccc21
Exercise: // pick larger EC50 from pair: A vs B To answer, give the label that identifies your chosen option.
Solution: B
(B: 148 nM, A: 90.1 nM)

====

- tested_on: PYL7 receptor-HAB1 protein phosphatase complex (Arabidopsis thaliana)
- Construct: made in house; host or cells: E. coli BL21 (DE3)
- measurement_notes: AlphaScreen assay: promotion of PYL7 receptor binding to PP2C protein phosphatase HAB1
measurement_name: EC50 (µM)
API: value field is a number in µM; no unit string.

Exercise: Kindly state the measured EC50 obtained for CC1=CC(=O)CC(C)(C)[C@@]1(O)/C=C/C(C)=C\C(=O)O [ABA, Abscisic Acid, reference compound] with PYL7 receptor-HAB1 protein phosphatase complex (Arabidopsis thaliana).
Solution: 1.16

====

- tested_on: PYL2 receptor-HAB1 protein phosphatase complex (Arabidopsis thaliana)
- Construct: made in house; host or cells: E. coli BL21 (DE3)
- Sequence (O80992 14-188, one chain of several): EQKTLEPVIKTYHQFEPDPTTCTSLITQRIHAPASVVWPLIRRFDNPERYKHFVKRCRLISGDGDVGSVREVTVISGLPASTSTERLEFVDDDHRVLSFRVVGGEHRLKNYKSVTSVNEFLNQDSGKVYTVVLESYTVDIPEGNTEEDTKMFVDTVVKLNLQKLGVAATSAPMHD
- measurement_notes: AlphaScreen assay: promotion of PYL2 receptor binding to PP2C protein phosphatase HAB1
- condition: EC50, FIG. 2f; 6×His-SUMO-tagged PYL2 (aa 14-188), Biotin-tagged HAB1 (aa 172-511), 100 nM each; pH 7.4; 1.5 h room temperature
measurement_name: EC50 (nM)
Hi! Could you send only the number? It should be in nM, unit omitted.

Exercise: Find the recorded EC50 belonging to CC1=CC(=O)CC(C)(C)[C@@]1(O)/C=C/C(C)=C\C(=O)O [ABA, Abscisic Acid, reference compound] and report it.
Solution: 148
